- Tested on: Neonatal foreskin primary human epidermal melanocytes
- experimentNotes: Melanin content assay
- Assay type: cell-based
- assayConditions: 15 micromolar, 72 hours, compared to vehicle control = 100

>  <compoundStructure>
CCCCCCCCCOc1ccc(C(=O)O)cc1

>  <% Melanin content / %>
136

$$$$
>  <compoundStructure>
CCCCCCCCOc1ccc(C(=O)O)cc1

>  <% Melanin content / %>
144

$$$$
>  <compoundStructure>
CCCCCCCOc1ccc(C(=O)O)cc1

>  <% Melanin content / %>
126

$$$$
>  <compoundStructure>
CCCCCCCCCCCOc1ccc(C(=O)O)cc1

>  <% Melanin content / %>
146

$$$$
